target: Bcl-2-like protein 10 (Homo sapiens) (UniProt Q9HD36); experiment: TR3 peptide-Bcl-B binding displacers, biochemical primary FP assay, phenotype converters (AID 1240); details: GST-Bcl-B / FITC-TR3 peptide fluorescence polarization; stronger effect = higher value; compound at 3.75 mg/L;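 also: 0% = Bcl-B with tracer peptide and DMSO and 100% = tracer peptide lacking Bcl-B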
Sequence (Q9HD36 whole entry, looked up): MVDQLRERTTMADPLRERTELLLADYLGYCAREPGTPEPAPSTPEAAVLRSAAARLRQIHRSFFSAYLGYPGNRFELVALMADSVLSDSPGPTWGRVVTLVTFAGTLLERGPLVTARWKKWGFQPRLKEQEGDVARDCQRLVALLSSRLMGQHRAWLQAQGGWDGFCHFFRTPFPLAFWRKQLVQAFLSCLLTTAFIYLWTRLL
The whole screen tested about 50,000 compounds, of which about 800 (1.6%) showed an effect of 50% or more. Shown is part of a subset that was picked to be rich in strong results.
property label: displacement (%)
Write the value in % as a bare number.

Task: Tell me displacement of COC(=O)C1=C(C)N(C)C(=O)/C1=C\c1ccc2c(c1)OCO2 when tested on Bcl-2-like protein 10 (Homo sapiens) (UniProt Q9HD36).
Result: -0.7

Task: Tell me displacement of COC(=O)C1=C(C)N(c2ccc(C)cc2)C(=O)/C1=C\c1ccc2c(c1)OCO2 when tested on Bcl-2-like protein 10 (Homo sapiens) (UniProt Q9HD36).
Result: 107

Task: Tell me displacement of COC(=O)c1ccc(N2C(=O)c3cccc([N+](=O)[O-])c3C2=O)cc1 when tested on Bcl-2-like protein 10 (Homo sapiens) (UniProt Q9HD36).
Result: -0.7

Task: Tell me displacement of COC(=O)C1=C(C)N(c2cccc(C)c2)C(=O)/C1=C\c1ccc(C(=O)O)cc1 when tested on Bcl-2-like protein 10 (Homo sapiens) (UniProt Q9HD36).
Result: 6.9

Task: Tell me displacement of COC(=O)C1=C(C)N(c2ccccc2)C(=O)/C1=C\c1ccc(C(=O)OC)cc1 when tested on Bcl-2-like protein 10 (Homo sapiens) (UniProt Q9HD36).
Result: 130

Task: Tell me displacement of CN(C)c1ccc(/C=C/c2nc3ccccc3c(=O)n2-c2cccc3ccccc23)cc1 when tested on Bcl-2-like protein 10 (Homo sapiens) (UniProt Q9HD36).
Result: 105

Task: Tell me displacement of O=C(Nc1ccc(F)cc1)c1ccco1 when tested on Bcl-2-like protein 10 (Homo sapiens) (UniProt Q9HD36).
Result: 12.9

Task: Tell me displacement of Cc1cccc(C(=O)NNC2=CC(=O)CC(C)(C)C2)c1O when tested on Bcl-2-like protein 10 (Homo sapiens) (UniProt Q9HD36).
Result: 37.5

Task: Tell me displacement of COc1ccc(/C=C2\C(=O)NC(=O)N(c3cccc(Br)c3)C2=O)c(C)c1 when tested on Bcl-2-like protein 10 (Homo sapiens) (UniProt Q9HD36).
Result: -5.7

Task: Tell me displacement of Cn1c(/C=C/c2ccc3c(c2)OCO3)nc2ccccc2c1=O when tested on Bcl-2-like protein 10 (Homo sapiens) (UniProt Q9HD36).
Result: 1.3
